The measured values listed here are drawn from ChEMBL document CHEMBL5325507.

biological target: Tumor necrosis factor receptor superfamily member 1B (Homo sapiens); test: Competitive Inhibition of TNF-alpha binding to human recombinant TNFR2 incubated for 1 hr by ELISA analysis
Sequence (P20333 whole entry): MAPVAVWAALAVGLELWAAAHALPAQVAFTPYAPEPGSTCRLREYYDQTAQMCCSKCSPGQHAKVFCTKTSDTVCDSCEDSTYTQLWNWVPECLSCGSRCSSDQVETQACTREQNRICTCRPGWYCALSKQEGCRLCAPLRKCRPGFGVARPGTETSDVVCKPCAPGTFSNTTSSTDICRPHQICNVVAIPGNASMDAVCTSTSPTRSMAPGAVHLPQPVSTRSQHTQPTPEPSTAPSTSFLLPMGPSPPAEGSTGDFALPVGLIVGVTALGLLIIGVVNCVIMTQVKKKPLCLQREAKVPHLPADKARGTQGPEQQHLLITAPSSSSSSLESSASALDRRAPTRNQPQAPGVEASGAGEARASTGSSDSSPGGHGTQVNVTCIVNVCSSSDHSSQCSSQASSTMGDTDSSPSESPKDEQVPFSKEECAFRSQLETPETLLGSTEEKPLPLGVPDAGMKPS
Value type: EC50 (µM)
One number for each entry, in µM.

Looking up H-DEFHLELHLYQSW-OH , I see its EC50 listed as 17
